- Assay Explanation: Inhibition of Human umbilical vein endothelial cells (HUVEC) adhesion to vitronectin
- Assay type: cell-based
Quantity Name: IC50

So for CCOC(=O)COC1CCN(C(=O)[C@H](C)NC(=O)c2ccc(/C(N)=N/O)cc2)CC1 [SIBRAFIBAN] , the logged IC50 turned out to be > 50 µM

====

- Assay Explanation: Area under curve was determined after oral administration in rats
- Format: ADME, organism-based
- Details: rat, in vivo
Quantity Name: AUC

So for CCOC(=O)CCNC(=O)N1CCC2(CC1)CCN(c1ccc(C(=N)NO)cc1)C2=O , the logged AUC turned out to be 565 ng·h/mL

====

- Assay Explanation: Area under curve was determined after oral administration in rats
- Assay type: ADME, organism-based
- Design: concentration or dose not given beside the values
- Details: rat, in vivo
Y if AUC is below 60 ng·h/mL. N if not; exact matches included in N.

Given CCOC(=O)CCCC(=O)N1CCC2(CC1)CCN(c1ccc(C(=N)NO)cc1)C2=O , is recorded AUC strictly lower than 60 ng·h/mL? N

Given CCOC(=O)COCC(=O)N1CCC2(CC1)CCN(c1ccc(C(=N)NO)cc1)C2=O , is recorded AUC strictly lower than 60 ng·h/mL? N

Given CCCCOC(=O)N[C@@H](CCC(=O)N1CCC2(CC1)CCN(c1ccc(C(=N)NO)cc1)C2=O)C(=O)OCC , is recorded AUC strictly lower than 60 ng·h/mL? N

Given CCOC(=O)CCNC(=O)N1CCC2(CC1)CN(c1ccc(C(=N)NO)cc1)C(=O)N2C , is recorded AUC strictly lower than 60 ng·h/mL? Y

Given CCOC(=O)CCNC(=O)N1CCC2(CC1)CC(=O)N(c1ccc(C(=N)NO)cc1)C2 , is recorded AUC strictly lower than 60 ng·h/mL? N

Given CCOC(=O)CC(CC(=O)N1CCC2(CC1)CCN(c1ccc(C(=N)NO)cc1)C2=O)c1ccccc1 (configuration not stated) , is recorded AUC strictly lower than 60 ng·h/mL? Y

meta.source: ChEMBL document CHEMBL1137087
